- Test system: A549
- ASSAY NOTES: Growth inhibition of human A549/ATCC cells after 48 hrs by sulforhodamine B assay
- Type: functional
- MEASUREMENT SETUP: A549, 48 h
Overview of recorded GI50 for various compounds
READOUT LABEL: GI50 (µM)

INSERT INTO assay_data (compound, measured_on, readout_label, numeric_result) VALUES
  ('COc1cccc(C2C(C#N)=C(N)Oc3cc4c(cc32)OCO4)c1 (centres undefined)', 'A549', 'GI50', 0.0625),
  ('COc1cccc(C2C(C#N)=C(N)Oc3cc(OC)ccc32)c1 (centres undefined)', 'A549', 'GI50', 0.0452),
  ('COc1ccc2c(c1)OC(N)=C(C#N)C2c1cc(OC)c(OC)c(OC)c1 (racemic)', 'A549', 'GI50', 0.0376),
  ('COc1cc(C2C(C#N)=C(N)Oc3cc(O)ccc32)cc(OC)c1OC (centres undefined)', 'A549', 'GI50', 0.638);

###

- ASSAY NOTES: Growth inhibition of human OVCAR4 cells after 48 hrs by sulforhodamine B assay
- Format: functional
- MEASUREMENT SETUP: OVCAR-4, 48 h
READOUT LABEL: GI50 (nM)

INSERT INTO assay_data (compound, numeric_result) VALUES
  ('COc1cccc(C2C(C#N)=C(N)Oc3cc(OC)ccc32)c1 (centres undefined)', 535),
  ('COc1cc(C2C(C#N)=C(N)Oc3cc(O)ccc32)cc(OC)c1OC (centres undefined)', 3490),
  ('COc1ccc2c(c1)OC(N)=C(C#N)C2c1cc(OC)c(OC)c(OC)c1 (racemic)', 80.8),
  ('COc1cccc(C2C(C#N)=C(N)Oc3cc4c(cc32)OCO4)c1 (centres undefined)', 2510);

###

- ASSAY NOTES: Cytotoxicity against human NCI60 cells
- Format: functional
Lab note - cut at 60 nM for GI50: class 1 if strictly below, class 0 if not.

INSERT INTO measurements (compound, qualitative_label) VALUES
  ('COc1cc(C2C(C#N)=C(N)Oc3cc4c(cc32)OCO4)cc2c1OCO2 (configuration not stated)', 'class 0'),
  ('COc1cc(C2C(C#N)=C(N)Oc3cc(O)ccc32)cc(OC)c1OC (configuration not stated)', 'class 0'),
  ('COc1cccc(C2C(C#N)=C(N)Oc3cc(OC)ccc32)c1 (configuration not stated)', 'class 1'),
  ('N#CC1=C(N)Oc2cc(O)ccc2C1c1cc2c(c([N+](=O)[O-])c1)OCCO2 (configuration not stated)', 'class 0'),
  ('COc1cccc(C2C(C#N)=C(N)Oc3cc4c(cc32)OCO4)c1 (configuration not stated)', 'class 0'),
  ('COc1cc([C@@H]2c3cc4c(cc3[C@H](O)[C@H]3COC(=O)[C@H]23)OCO4)cc(OC)c1OC', 'class 1'),
  ('COc1ccc2c(c1)OC(N)=C(C#N)C2c1cc(OC)c(OC)c(OC)c1 (racemic)', 'class 1');

###

- Test system: SK-MEL-5
- ASSAY NOTES: Growth inhibition of human SK-MEL-5 cells after 48 hrs by sulforhodamine B assay
- Format: functional
- MEASUREMENT SETUP: SK-MEL-5, 48 h
This section presents molecules with their documented GI50 values.
READOUT LABEL: GI50 (nM)

INSERT INTO assay_data (molecule, measured_on, numeric_result) VALUES
  ('COc1cc(C2C(C#N)=C(N)Oc3cc(O)ccc32)cc(OC)c1OC (centres undefined)', 'SK-MEL-5', 305),
  ('COc1ccc2c(c1)OC(N)=C(C#N)C2c1cc(OC)c(OC)c(OC)c1 (racemic)', 'SK-MEL-5', 24),
  ('COc1cccc(C2C(C#N)=C(N)Oc3cc(OC)ccc32)c1 (centres undefined)', 'SK-MEL-5', 50.3),
  ('COc1cccc(C2C(C#N)=C(N)Oc3cc4c(cc32)OCO4)c1 (centres undefined)', 'SK-MEL-5', 37.8);

###

- Tested on: Paracentrotus lividus
- ASSAY NOTES: Antimitotic microtubule destabilizing activity in Paracentrotus lividus L embryos assessed as induction of cleavage alteration
Kindly return condition met if reported EC is no lower than 0.5 µM; return condition not met if it is lower.

INSERT INTO measurements (molecule, measured_on, qualitative_label) VALUES
  ('COc1ccc2c(c1)OC(N)=C(C#N)C2c1cccc(OC)c1OC (stereo unspecified)', 'Paracentrotus lividus', 'condition not met'),
  ('COc1ccc(C2C(C#N)=C(N)Oc3cc(OC)ccc32)c(OC)c1 (stereo unspecified)', 'Paracentrotus lividus', 'condition not met'),
  ('N#CC1=C(N)Oc2cc(O)ccc2C1c1ccccc1F (stereo unspecified)', 'Paracentrotus lividus', 'condition met'),
  ('COc1cc(OC)cc(C2C(C#N)=C(N)Oc3cc(OC)ccc32)c1 (stereo unspecified)', 'Paracentrotus lividus', 'condition not met'),
  ('COc1c(C2C(C#N)=C(N)Oc3cc(O)ccc32)cc2c(c1OC)OCO2 (stereo unspecified)', 'Paracentrotus lividus', 'condition met'),
  ('COc1cc(C2C(C#N)=C(N)Oc3cc(O)ccc32)cc(OC)c1OC (stereo unspecified)', 'Paracentrotus lividus', 'condition met'),
  ('COc1ccc(C2C(C#N)=C(N)Oc3cc(OC)ccc32)cc1 (stereo unspecified)', 'Paracentrotus lividus', 'condition not met'),
  ('COc1cccc(C2C(C#N)=C(N)Oc3cc(O)ccc32)c1 (stereo unspecified)', 'Paracentrotus lividus', 'condition not met'),
  ('COc1cccc(C2C(C#N)=C(N)Oc3cc(OC)ccc32)c1 (stereo unspecified)', 'Paracentrotus lividus', 'condition not met');

###

Listed below: EC values for each entry.
- Test system: Paracentrotus lividus
- ASSAY NOTES: Antimitotic microtubule destabilizing activity in Paracentrotus lividus L embryos assessed as induction of embryo spinning
READOUT LABEL: EC

INSERT INTO results (compound, readout_label, result) VALUES
  ('COc1cc(C2C(C#N)=C(N)Oc3cc(O)ccc32)c(OC)c(OC)c1OC (stereo unspecified)', 'EC', '> 4 µM'),
  ('COc1cccc(C2C(C#N)=C(N)Oc3cc(O)ccc32)c1OC (stereo unspecified)', 'EC', '> 4 µM'),
  ('COc1ccccc1C1C(C#N)=C(N)Oc2cc(O)ccc21 (stereo unspecified)', 'EC', '> 5 µM'),
  ('N#CC1=C(N)Oc2cc(O)ccc2C1c1cc2c(c([N+](=O)[O-])c1)OCCO2 (stereo unspecified)', 'EC', '> 4 µM'),
  ('COc1cc(C2C(C#N)=C(N)Oc3cc4c(cc32)OCO4)cc2c1OCO2 (stereo unspecified)', 'EC', '0.2 µM'),
  ('COc1ccc(C2C(C#N)=C(N)Oc3cc(O)ccc32)c(OC)c1 (stereo unspecified)', 'EC', '> 4 µM');

###

- System: Paracentrotus lividus
- ASSAY NOTES: Antimitotic microtubule destabilizing activity in Paracentrotus lividus L embryos assessed as induction of embryo spinning
READOUT LABEL: EC

INSERT INTO results (molecule, result) VALUES
  ('N#CC1=C(N)Oc2cc(O)ccc2C1c1ccccc1 (stereo unspecified)', '> 5 µM'),
  ('N#CC1=C(N)Oc2cc(O)ccc2C1c1ccccc1I (stereo unspecified)', '> 4 µM'),
  ('N#CC1=C(N)Oc2cc(O)ccc2C1c1ccccc1F (stereo unspecified)', '> 5 µM'),
  ('COc1ccc(C2C(C#N)=C(N)Oc3cc(O)ccc32)c(OC)c1OC (stereo unspecified)', '> 4 µM'),
  ('COc1ccc(OC)c(C2C(C#N)=C(N)Oc3cc(O)ccc32)c1 (stereo unspecified)', '> 4 µM'),
  ('COc1cc([C@@H]2c3cc4c(cc3[C@H](O)[C@H]3COC(=O)[C@H]23)OCO4)cc(OC)c1OC', '0.5 µM'),
  ('COc1ccc(C2C(C#N)=C(N)Oc3cc(O)ccc32)cc1 (stereo unspecified)', '> 4 µM'),
  ('COc1cccc(C2C(C#N)=C(N)Oc3cc(O)ccc32)c1 (stereo unspecified)', '> 5 µM'),
  ('COc1ccc(C2C(C#N)=C(N)Oc3cc(OC)ccc32)c(OC)c1 (stereo unspecified)', '4 µM'),
  ('COc1ccc(C2C(C#N)=C(N)Oc3cc(OC)ccc32)cc1 (stereo unspecified)', '> 5 µM'),
  ('COc1ccc2c(c1)OC(N)=C(C#N)C2c1cc(N)c2c(c1)OCCO2 (stereo unspecified)', '5 µM'),
  ('COc1cc(OC)c(C2C(C#N)=C(N)Oc3cc(O)ccc32)c(OC)c1 (stereo unspecified)', '> 4 µM'),
  ('COc1cc(C2C(C#N)=C(N)Oc3cc(O)ccc32)cc2c1OCO2 (stereo unspecified)', '10 µM'),
  ('COc1cc(C2C(C#N)=C(N)Oc3cc(O)ccc32)cc2c1OCCO2 (stereo unspecified)', '> 5 µM'),
  ('COc1c(C2C(C#N)=C(N)Oc3cc(O)ccc32)cc2c(c1OC)OCO2 (stereo unspecified)', '> 4 µM'),
  ('COc1cccc([C@H]2C(C#N)=C(N)Oc3cc(OC)ccc32)c1', '0.05 µM');
